All figures here come from PubChem BioAssay (NCI).

Task for the reader: assign each of the following molecules its reported TGI.
# Tested on: SF-295 CNS
# method.description: NCI tumour cell line growth inhibition, 48 h

N#Cc1c(-c2ccco2)cc(-c2ccc(NCc3nc4ccccc4[nH]3)cc2)nc1N; 52.3 µM

Each molecule below has a reported value. Please supply its TGI.
1. N#CCCN(CCC#N)c1ccc(C(N=Nc2ccccc2)=Nc2ccccc2)cc1
2. CC1(C2(C)OC(=O)c3ccccc32)OC(=O)c2ccccc21 (stereo not drawn)

1. > 100 µM
2. > 100 µM

----------
# Tested on: CCRF-CEM leukemia
# method.description: NCI tumour cell line growth inhibition, 48 h
measured.attribute: GI50

Past entries and their recorded results:
CCC(C)n1cc(C)c2c(C(=O)NCc3c(C)cc(C)[nH]c3=O)cc(Br)cc21 (stereo not given); 30.8 µM
COC(=O)c1ccc2c(c1)nc(-c1cc3ccccc3[nH]c1=O)n2-c1cc(C(C)(C)C)[nH]n1; 0.853 µM
O=[N+]([O-])c1ccc(-c2nc(-c3ccccc3)c(-c3ccccc3)n2-c2ccccc2)cc1; 2.83 µM
COc1ccccc1-n1c(-c2cc(O)ccc2C)cn2c3c(=O)[nH]c(=O)n(C)c3nc12; > 100 µM

Okay, now this compound:
Record request: GI50 value, item N=C(N)c1ccc(-c2ccc(-c3ccc(Cl)cc3Cl)s2)cc1F
1.8 µM

----------
# System: SNB-75 CNS
# method.description: NCI tumour cell line growth inhibition, 48 h; in the data active = GI50 below about 0.43 µM; inactive = the rest
Your answer must be one of the following: active, inactive

The examples below pair each entry with its known result.
OCCCN=NNc1ccc(-c2nc3ccccc3[nH]2)cc1; inactive
CN(C)c1ccc(N=Cc2c([O-])ccc3ccccc23)cc1.[C-]#[O+].[C-]#[O+].[Ir]; inactive
N#Cc1c(-c2ccc(Cl)cc2)n(O)c2ccccc12; inactive
COc1cc(C(=O)/C=C/c2cc(C(=O)c3cc(OC)c(OC)c(OC)c3)ccc2OC)ccc1N; inactive
CCOC(=O)c1sc2nc3sc(N=Nc4ccc(Cl)cc4)c(O)n3c(=S)c2c1C; inactive

For this compound, state the assay outcome: COc1cccc(C2C(C#N)=C(N)Oc3cc(N)ccc32)c1 (stereo unspecified)
active

For this compound, state the assay outcome: CCCCCC(O)C1C(=O)OC(C)C(O)/C=C/C=C/C=C/C=C\C=C(\C)C(O)CC(O)CC(O)CC(O)CC(O)CC(O)CC1O (stereo unspecified)
inactive

For this compound, state the assay outcome: COc1ccc(-c2ccc(/C=N/n3c(COc4ccccc4Cl)nn(CN4CCN(C)CC4)c3=S)o2)c([N+](=O)[O-])c1
inactive

For this compound, state the assay outcome: C=C1C[C@](OC)([C@H](O)C(=O)N[C@@H](OC)[C@@H]2C[C@@H](O)C(C)(C)[C@@H](C[C@@H](COC)OC)O2)O[C@H](C)[C@@H]1C
active

For this compound, state the assay outcome: COC(=O)c1ccc2c(c1)nc(-c1cc3ccccc3[nH]c1=O)n2-c1cc(C(C)(C)C)[nH]n1
inactive

For this compound, state the assay outcome: CCN(CC)CCCNc1cccc2c(SCc3ccccc3)ccnc12
inactive

----------
Task for the reader: assign each of the following molecules its reported TGI.
# System: A498 renal
# method.description: NCI tumour cell line growth inhibition, 48 h

O=C1Nc2cccc(Cl)c2/C1=C\c1c(Cl)nc2sccn12; > 100 µM

Each molecule below has a reported value. Please supply its TGI.
1. CCOc1ccc([C@@H]2[C@@H](Oc3ccccc3)C(=O)N2c2cc(OC)c(OC)c(OC)c2)cc1
2. N#CCCN(CCC#N)c1ccc(C(N=Nc2ccccc2)=Nc2ccccc2)cc1
3. COc1ccc(C(O)/C(=N\NC(N)=S)c2nc3ccc([N+](=O)[O-])cc3[nH]c2=O)cc1OC (stereo not drawn)
4. COc1ccc(/C=C2\CCCCC2=O)cc1
5. COC(=O)c1ccc2c(c1)nc(-c1cc3ccccc3[nH]c1=O)n2-c1cc(C(C)(C)C)[nH]n1
6. O=C(CO)CC(=O)C(=O)Nc1nc([N+](=O)[O-])cs1
7. O=P(Oc1ccccc1)(Oc1ccccc1)Oc1c[nH]c2ccccc12

0.0853 µM
> 100 µM
> 100 µM
> 100 µM
> 87.7 µM
> 100 µM
29.1 µM

----------
# Test system: NCI-H460 lung
Your answer must be one of the following: active, inactive

The examples below pair each entry with its known result.
CC(=O)c1c(C(F)(F)F)n([O-])c2ccc(Cl)cc2[n+]1=O; active
O=C1C(Br)=CC2(C=C1Br)CCN=c1c2c(O)c2nc3ccccc3c3ccnc1c23; inactive
COc1ccc(Nn2c(SCC(=O)Nc3nc(-c4ccc(Cl)cc4)cs3)nc(C)c2C)cc1; inactive
COc1cc(C(=O)/C=C/c2cc(C(=O)c3cc(OC)c(OC)c(OC)c3)ccc2OC)ccc1N; inactive
CCCCCC(O)C1C(=O)OC(C)C(O)/C=C/C=C/C=C/C=C\C=C(\C)C(O)CC(O)CC(O)CC(O)CC(O)CC(O)CC1O (stereo not given); inactive

For this molecule, state the assay outcome: COc1cc(NCCCCN=C(N)NC(N)=NC(C)C)c2ncccc2c1
inactive

For this molecule, state the assay outcome: CC(=O)c1ccc(NC(=O)CSc2nnc(-c3cc(-c4ccc(C)cc4)nc4ccccc34)o2)cc1
inactive

For this molecule, state the assay outcome: CCC(C)n1cc(C)c2c(C(=O)NCc3c(C)cc(C)[nH]c3=O)cc(Br)cc21 (stereo not given)
inactive

For this molecule, state the assay outcome: OCCCN=NNc1ccc(-c2nc3ccccc3[nH]2)cc1
inactive

For this molecule, state the assay outcome: CCN(CC)CCCNc1cccc2c(SCc3ccccc3)ccnc12
inactive

----------
# Tested on: NCI/ADR-RES ovarian
# method.description: NCI tumour cell line growth inhibition, 48 h; in the data active = GI50 below about 0.43 µM; inactive = the rest
Your answer must be one of the following: T for active, F for inactive

The examples below pair each entry with its known result.
CC(C)CCOc1ccc(-c2n[nH]c(C(F)(F)F)c2-c2cncc(C#N)c2)c(O)c1; F
COc1cccc(C2C(C#N)=C(N)Oc3cc(N)ccc32)c1 (stereo not given); T
ClC1=C(Cl)C(Cl)=C(Cl)C1=C/C=C/c1ccccc1; T
CS(=O)CCCCCN=C=S (stereo not given); F
COc1ccc(-c2ccc(/C=N/n3c(COc4ccccc4Cl)nn(CN4CCN(C)CC4)c3=S)o2)c([N+](=O)[O-])c1; F
COc1cc(/C=C/c2cc(/C=C/c3ccc(O)c(OC)c3)n(-c3c(C)cccc3C)c(=O)n2)ccc1O; F
CCN(CC)c1cc(/C=C/c2ccc(OC)c(OC)c2)nc2cc(F)c(F)cc12; F
CC(=O)Nc1ccc(Sc2ccc([N+](=O)[O-])o2)cc1; F

For this compound, state the assay outcome: COC(=O)c1ccc2c(c1)nc(-c1cc3ccccc3[nH]c1=O)n2-c1cc(C(C)(C)C)[nH]n1
F

For this compound, state the assay outcome: Cc1ccc(C2NC(=S)NC3=C2CCOc2c3ccc3ccccc23)cc1 (stereo not given)
F

----------
# System: NCI-H522 lung
# method.description: NCI tumour cell line growth inhibition, 48 h
measured.attribute: TGI

COC(=O)C(CCCC1(c2ccccc2)OCCO1)C(C)=O (stereo unspecified); > 100 µM
Cc1cc(N(CCC#N)S(C)(=O)=O)ccc1C=O; > 100 µM
Clc1ccc(SCCSCCCCCCCCCCSCCSc2ccc(Cl)cc2)cc1; > 100 µM
CCCC/C=C/C1Cc2ccccc2CN1S(=O)(=O)c1ccc(C)cc1 (stereo unspecified); 20.2 µM

Each compound below has a reported value. Please supply its TGI.
1. COC(OC)c1cccc2c1C(=O)CCC1(O)c3ccccc3C1C2 (stereo unspecified)
2. CC(C)NC(=O)CN1CCN(C2=CC(=O)c3c(O)ccc(O)c3C2=O)CC1

1: > 100 µM; 2: 34.5 µM

----------
Task for the reader: assign each of the following molecules its reported GI50.
# Test system: A498 renal
# method.description: NCI tumour cell line growth inhibition, 48 h

CS(=O)CCCCCN=C=S (configuration not stated); 10.4 µM

Each molecule below has a reported value. Please supply its GI50.
1. CC(=O)c1c(C(F)(F)F)n([O-])c2ccc(Cl)cc2[n+]1=O
2. CCCCCCCC/C=C/CCCCCCCCC1=NCCN1CCO
3. CCCCCC(O)C1C(=O)OC(C)C(O)/C=C/C=C/C=C/C=C\C=C(\C)C(O)CC(O)CC(O)CC(O)CC(O)CC(O)CC1O (configuration not stated)
4. COc1cc(C(=O)/C=C/c2cc(C(=O)c3cc(OC)c(OC)c(OC)c3)ccc2OC)ccc1N
5. COc1ccc(Nn2c(SCC(=O)Nc3nc(-c4ccc(Cl)cc4)cs3)nc(C)c2C)cc1

1: 1.33 µM; 2: 2.34 µM; 3: > 100 µM; 4: 2.14 µM; 5: 2.22 µM

Record request: GI50 value, item Cc1cccc(Oc2nccc(-c3c(-c4ccc(F)cc4)ncn3C3CCNCC3)n2)c1C
6.22 µM
